STUDY_SYSTEM: T1, murine TIM-3 protein with hFc tag (mTIM-3-hFc protein) (mouse; human, UniProt Q8VIM0 29-191)
T1 construct: Made in HEK293 cells; also called mouse TIM-3 extracellular domain protein; not shown: human IgG Fc fragment (hFc) of the pCpC vector
T1 chain: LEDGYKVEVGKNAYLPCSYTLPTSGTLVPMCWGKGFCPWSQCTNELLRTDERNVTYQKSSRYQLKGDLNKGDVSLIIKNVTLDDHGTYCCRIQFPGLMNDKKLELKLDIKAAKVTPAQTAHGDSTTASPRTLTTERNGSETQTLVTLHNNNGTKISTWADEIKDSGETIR
EXPERIMENT_NOTES: ELISA, coated mTIM-3-hFc; antibody 0.0067 nM
MEASURE_NAME: OD450

BINDER	RECORDED_VALUE
39E5H1 (TIM-3 antibody purified from hybridoma, chimeric antibody of Example 2) (antibody, V domains shown, From hybridoma of Harbour H2L2 transgenic mice: human variable regions, rat constant regions) VH: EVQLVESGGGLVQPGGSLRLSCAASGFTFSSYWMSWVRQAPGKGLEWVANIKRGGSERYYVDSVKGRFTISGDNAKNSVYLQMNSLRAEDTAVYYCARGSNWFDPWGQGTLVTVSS VL: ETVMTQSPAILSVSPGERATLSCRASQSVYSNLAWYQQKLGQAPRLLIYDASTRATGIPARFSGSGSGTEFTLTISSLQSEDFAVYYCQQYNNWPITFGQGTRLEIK	0.64
134H3G6 (TIM-3 antibody purified from hybridoma, chimeric antibody of Example 2) (antibody, V domains shown, From hybridoma of Harbour H2L2 transgenic mice: human variable regions, rat constant regions) VH: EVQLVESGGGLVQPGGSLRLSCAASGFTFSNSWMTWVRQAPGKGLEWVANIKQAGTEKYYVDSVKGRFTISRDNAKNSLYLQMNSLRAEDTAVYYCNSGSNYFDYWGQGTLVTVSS VL: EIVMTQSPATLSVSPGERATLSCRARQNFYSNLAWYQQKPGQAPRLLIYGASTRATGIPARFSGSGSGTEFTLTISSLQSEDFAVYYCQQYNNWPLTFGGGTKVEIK	0.64
18D2H2 (TIM-3 antibody purified from hybridoma, chimeric antibody of Example 2) (antibody, V domains shown, From hybridoma of Harbour H2L2 transgenic mice: human variable regions, rat constant regions) VH: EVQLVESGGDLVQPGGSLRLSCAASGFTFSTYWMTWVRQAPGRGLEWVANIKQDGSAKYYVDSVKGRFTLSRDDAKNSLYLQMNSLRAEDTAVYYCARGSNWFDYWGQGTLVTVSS VL: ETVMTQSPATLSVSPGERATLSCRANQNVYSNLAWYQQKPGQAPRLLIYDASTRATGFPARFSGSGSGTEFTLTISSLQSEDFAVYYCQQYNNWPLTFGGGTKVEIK	0.63
57F4E5 (TIM-3 antibody purified from hybridoma, chimeric antibody of Example 2) (antibody, V domains shown, From hybridoma of Harbour H2L2 transgenic mice: human variable regions, rat constant regions) VH: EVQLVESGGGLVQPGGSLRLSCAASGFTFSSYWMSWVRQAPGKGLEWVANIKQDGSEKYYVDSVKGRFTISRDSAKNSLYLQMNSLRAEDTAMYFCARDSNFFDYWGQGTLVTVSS VL: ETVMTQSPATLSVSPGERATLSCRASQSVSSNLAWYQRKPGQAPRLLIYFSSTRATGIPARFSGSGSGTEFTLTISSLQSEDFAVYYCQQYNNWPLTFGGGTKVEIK	0.68
7A4F10 (TIM-3 antibody purified from hybridoma, chimeric antibody of Example 2) (antibody, V domains shown, From hybridoma of Harbour H2L2 transgenic mice: human variable regions, rat constant regions) VH: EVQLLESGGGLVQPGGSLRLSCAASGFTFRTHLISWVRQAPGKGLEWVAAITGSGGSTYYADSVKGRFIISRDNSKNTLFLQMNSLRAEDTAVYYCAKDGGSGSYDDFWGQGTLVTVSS VL: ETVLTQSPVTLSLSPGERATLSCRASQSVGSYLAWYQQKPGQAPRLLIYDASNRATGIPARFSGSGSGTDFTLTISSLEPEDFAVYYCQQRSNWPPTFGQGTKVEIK	0.64
34B6D8 (TIM-3 antibody purified from hybridoma, chimeric antibody of Example 2) (antibody, V domains shown, From hybridoma of Harbour H2L2 transgenic mice: human variable regions, rat constant regions) VH: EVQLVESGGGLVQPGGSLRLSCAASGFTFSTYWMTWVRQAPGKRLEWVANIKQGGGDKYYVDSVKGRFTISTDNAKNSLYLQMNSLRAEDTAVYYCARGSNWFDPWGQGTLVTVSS VL: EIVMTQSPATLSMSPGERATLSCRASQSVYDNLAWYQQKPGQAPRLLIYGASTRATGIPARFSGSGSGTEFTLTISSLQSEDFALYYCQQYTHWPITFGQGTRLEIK	0.65

Origin of the recorded values: patent US20220033501A1
